Test system: Fibroblast
Assay: Multiplex assay against human fibroblast
Type: toxicity, cell-based
Conditions: 12 h, 1 µM, compound concentration 1 uM, replicate 1
measured metric: Total Cell Count
Reply: number alone, nothing else.

Consider the following illustrative entries.
>>> df
                               entry_smiles   measured_metric  value_reported
0  CCc1ccc(OCc2ccccc2C(=O)Nc2ccc3nc(C)cc(N)c3c2)cc1.Cl  Total Cell Count             177
1  CCCSc1nc(N[C@@H]2C[C@H]2c2ccc(F)c(F)c2)c2nnn([C@@H]3C[C@H](OCCO)[C@@H](O)[C@H]3O)c2n1  Total Cell Count             179

QUERY: Determine its reported Total Cell Count: `O=c1cc(N2CCOCC2)oc2c(-c3cccc4c3sc3ccccc34)cccc12`
RESULT: 136

QUERY: Query Total Cell Count for `O=c1[nH]c2ccccc2n1C1CCN(Cc2ccc(-c3[nH]c4cc5ncnc5cc4nc3-c3ccccc3)cc2)CC1`
RESULT: 251

QUERY: Please report Total Cell Count for the following molecule: `Cc1ccc(C)c(Oc2ccncc2C(=O)N2CCN(C3CC3)c3ccccc32)c1`
RESULT: 90

QUERY: Report measured Total Cell Count; entry is `CC(C)NC(=O)N1CC[C@H](NC2=Nc3cc(F)ccc3N(CC(F)F)c3ccc(Cl)cc32)C1`
RESULT: 79

* * *

Listing: Population Apoptotic (%) of selected compounds
System: HEK-293T
Test: Multiplex assay against HEK293T
Assay type: toxicity, cell-based
Conditions: human, 48 h, 10 µM, compound concentration 10 uM, replicate 2
Only the number, expressed in %, is required.

QUERY: Kindly indicate its recorded Population Apoptotic (%). Item: `CC(C)(C)NC[C@H](O)COc1nsnc1N1CCOCC1`
RESULT: 6

* * *

Tested on: U2OS
Assay: Multiplex assay against U2OS
Type: toxicity, cell-based
Settings: human, 12 h, 10 µM, compound concentration 10 uM, replicate 1
Recorded Population Healthy Nuclei (%) values for a group of molecules are listed next.
Numeric answer only, unit % assumed.

Illustrative cases are given below, each with its answer.
>>> df
                                   molecule  value_reported
0  COC(=O)C1=C(C)NC(C)=C(C(=O)OCCCN2CCC(c3ccccc3)(c3ccccc3)CC2)[C@H]1c1cccc([N+](=O)[O-])c1               4
1  CCc1ccc(OCc2ccccc2C(=O)Nc2ccc3nc(C)cc(N)c3c2)cc1.Cl              22

QUERY: Answer with the recorded Population Healthy Nuclei (%) for the molecule listed here: `CCCSc1nc(N[C@@H]2C[C@H]2c2ccc(F)c(F)c2)c2nnn([C@@H]3C[C@H](OCCO)[C@@H](O)[C@H]3O)c2n1`
RESULT: 64

QUERY: Return the recorded Population Healthy Nuclei (%) value; entry: `O=c1[nH]c2ccccc2n1C1CCN(Cc2ccc(-c3[nH]c4cc5ncnc5cc4nc3-c3ccccc3)cc2)CC1`
RESULT: 66

QUERY: Specify measured Population Healthy Nuclei (%) for `C=CC(=O)Nc1cccc(Oc2nc(Nc3ccc(N4CCN(C)CC4)cc3OC)ncc2Cl)c1` .
RESULT: 82

QUERY: Provide one value: measured Population Healthy Nuclei (%) of `CC(C)c1noc(N2CCC(COc3ccc(-c4ccc(S(C)(=O)=O)cc4)nc3)CC2)n1`
RESULT: 67

QUERY: Supply Population Healthy Nuclei (%) value. Item: `CC(C)NC(=O)N1CC[C@H](NC2=Nc3cc(F)ccc3N(CC(F)F)c3ccc(Cl)cc32)C1`
RESULT: 72

QUERY: Supply recorded Population Healthy Nuclei (%) for `COc1cc(Nc2nccc(-c3cnn4nc(OC)ccc34)n2)cc(C(F)(F)F)c1` here.
RESULT: 55

QUERY: Tell me measured Population Healthy Nuclei (%) for `CNC(=O)Nc1ccc(-c2nc(N3CC4CCC(C3)O4)c3cnn(C4CCC5(CC4)OCCO5)c3n2)cc1` please.
RESULT: 31

QUERY: Supply reported Population Healthy Nuclei (%) belonging to this molecule: Cc1ccccc1C(c1ccccc1C)N1C2CCC1CC(O)(c1ccccc1)C2 (stereo not given)
RESULT: 73

QUERY: Quick one: give measured Population Healthy Nuclei (%) for Cc1ccc2c(c1)c1c(n2CCc2ccc(C)nc2)CCN(C)C1 [LATREPIRDINE]
RESULT: 64

* * *

Test system: HEK-293T
Experiment: Multiplex assay against HEK293T
Format: toxicity, cell-based
Settings: human, 12 h, 10 µM, compound concentration 10 uM, replicate 2
Catalogue of Population Apoptotic (%) values
Provide the reading as a plain figure in %.

Some entries whose results are on file:
>>> df
                                   compound           measured_metric  units_label  value_reported
0  CC(C)CC(=O)Nc1[nH]nc2c1CN(C(=O)C1CCN(C)CC1)C2(C)C  Population Apoptotic (%)            %              25
1  COc1cc2ncn(-c3cc(OCc4ccccc4C(F)(F)F)c(C(N)=O)s3)c2cc1OC [GW843682X]  Population Apoptotic (%)            %              31

QUERY: Determine from records and report Population Apoptotic (%) for O=C(c1cc2c(cc1F)OC(c1ccc(F)cc1)(c1ccc(Cl)cc1Cl)O2)N1CCOCC1 (configuration not stated)
RESULT: 54

QUERY: Tell me its Population Apoptotic (%) given `C=CC(=O)Nc1cccc(Oc2nc(Nc3ccc(N4CCN(C)CC4)cc3OC)ncc2Cl)c1` as the entry.
RESULT: 8

QUERY: Answer with the recorded Population Apoptotic (%) of `CCCSc1nc(N[C@@H]2C[C@H]2c2ccc(F)c(F)c2)c2nnn([C@@H]3C[C@H](OCCO)[C@@H](O)[C@H]3O)c2n1` only.
RESULT: 85

QUERY: Give the reported Population Apoptotic (%) for this compound. `C=CC(=O)Nc1cccc(Sc2nc(Nc3ccc(N4CCN(C)CC4)cc3)ncc2Cl)c1`
RESULT: 6

QUERY: // Input: `CNC(=O)Nc1ccc2c(c1)[C@@]1(CC2)OC(=O)N(CC(=O)N(Cc2ccc(F)cc2)[C@@H](C)C(F)(F)F)C1=O` . Output its Population Apoptotic (%) only.
RESULT: 5

* * *

Test system: Fibroblast
Assay: Multiplex assay against human fibroblast
Type: toxicity, cell-based
Conditions: 12 h, 1 µM, compound concentration 1 uM, replicate 1
Parameter: Population Fragmented Nuclei (%). Scope: all listed entries.
Answer format: numeric, % implied, no suffix.

Here are 5 molecules together with their reported answers.
                                   molecule  assayed_system  value_reported
0  COc1ccccc1CN[C@H]1C2CCN(CC2)[C@H]1C(c1ccccc1)c1ccccc1      Fibroblast              25
1  CC(C)Oc1ccccc1C(=O)Nc1ccccc1C(=O)Nc1cccc(S(=O)(=O)C(F)(F)F)c1      Fibroblast              23
2  O=C(c1cc2c(cc1F)OC(c1ccc(F)cc1)(c1ccc(Cl)cc1Cl)O2)N1CCOCC1 (centres undefined)      Fibroblast              18
3  CCCSc1nc(N[C@@H]2C[C@H]2c2ccc(F)c(F)c2)c2nnn([C@@H]3C[C@H](OCCO)[C@@H](O)[C@H]3O)c2n1      Fibroblast              17
4  CC1=C(C(=O)Nc2cc3cn[nH]c3cc2F)C(c2ccc(C(F)(F)F)cc2)CC(=O)N1 (centres undefined)      Fibroblast              29

QUERY: State its Population Fragmented Nuclei (%): Cc1cccc(CN2CCN(C(c3ccccc3)c3ccc(Cl)cc3)CC2)c1.Cl.Cl (centres undefined)
RESULT: 22

QUERY: Give the reported value of Population Fragmented Nuclei (%) for this record: `CN1CCN(Cc2ccc(Nc3ncc(Cl)c(Nc4ccccc4S(=O)(=O)N(C)C)n3)cc2)CC1`
RESULT: 27

QUERY: Read off the recorded Population Fragmented Nuclei (%) for CCc1nn(CCCN2CCN(c3cccc(Cl)c3)CC2)c(=O)n1CCOc1ccccc1.Cl [NEFAZODONE HYDROCHLORIDE]
RESULT: 16

QUERY: Please list Population Fragmented Nuclei (%) recorded for the molecule `O=c1[nH]c2ccccc2n1C1CCN(Cc2ccc(-c3[nH]c4cc5ncnc5cc4nc3-c3ccccc3)cc2)CC1`
RESULT: 45

QUERY: Read off the recorded Population Fragmented Nuclei (%) for `CCc1ccc(OCc2ccccc2C(=O)Nc2ccc3nc(C)cc(N)c3c2)cc1.Cl`
RESULT: 31

QUERY: Item `C=CC(=O)Nc1cccc(Sc2nc(Nc3ccc(N4CCN(C)CC4)cc3)ncc2Cl)c1` : provide Population Fragmented Nuclei (%)
RESULT: 28

QUERY: Output Population Fragmented Nuclei (%) of `CC(C)CC(=O)Nc1[nH]nc2c1CN(C(=O)C1CCN(C)CC1)C2(C)C`
RESULT: 21

QUERY: Respond only with Population Fragmented Nuclei (%) recorded for `CNC(=O)Nc1ccc(-c2nc(N3CC4CCC(C3)O4)c3cnn(C4CCC5(CC4)OCCO5)c3n2)cc1`
RESULT: 38

QUERY: Consider the molecule `O=c1cc(N2CCOCC2)oc2c(-c3cccc4c3sc3ccccc34)cccc12` and give its recorded Population Fragmented Nuclei (%).
RESULT: 23

QUERY: // fetch Population Fragmented Nuclei (%) given entry `C=CC(=O)Nc1cccc(Oc2nc(Nc3ccc(N4CCN(C)CC4)cc3OC)ncc2Cl)c1`
RESULT: 28

QUERY: Quote Population Fragmented Nuclei (%) reported for `CCOC(=O)Nc1cc(-c2ccc(C)c(NS(C)(=O)=O)c2)nn2c(C)nnc12` please.
RESULT: 30

QUERY: Using known records, supply Population Fragmented Nuclei (%) for Cc1ccc2c(c1)c1c(n2CCc2ccc(C)nc2)CCN(C)C1 [LATREPIRDINE]
RESULT: 26

QUERY: Given `CC(C)c1noc(N2CCC(COc3ccc(-c4ccc(S(C)(=O)=O)cc4)nc3)CC2)n1` , respond with its Population Fragmented Nuclei (%).
RESULT: 28
